Just for reference, ChEMBL document CHEMBL1629670 is where these values come from.

Please provide measured MIC for the entries that follow.
System: Candida albicans
ASSAY_PROCEDURE: Antifungal activity against Candida albicans CA10 after 48 hrs by broth microdilution method
Type: functional
TEST_SETTINGS: CA10, 48 h
Give bare numbers, in µg/mL.

[[record]]
compound = "CCC(C)n1ncn(-c2ccc(N3CCN(c4ccc(OCC5COC(Cn6cncn6)(c6ccc(Cl)cc6Cl)O5)cc4)CC3)cc2)c1=O (centres undefined)"
result_units = "µg/mL"
numeric_value = 128

[[record]]
compound = "CC(C)[C@H]1CC[C@@H]2[C@]1(C)CC[C@]1(C)[C@H]3CC[C@@H]4[C@](C(=O)O)(C[C@@H](O)[C@H](O)[C@@]4(C)C(=O)O)C3=CC[C@@]21C"
result_units = "µg/mL"
numeric_value = 16

[[record]]
compound = "OC(Cn1cncn1)(Cn1cncn1)c1ccc(F)cc1F"
result_units = "µg/mL"
numeric_value = 256


// returns reported MIC for input CC(=O)N1CCN(c2ccc(OCC3COC(Cn4ccnc4)(c4ccc(Cl)cc4Cl)O3)cc2)CC1 (centres undefined)
16
